Experiment: Single dose 300 mg / 450 mg pharmacokinetic, safety and tolerability study in healthy male and female subjects
Details: female, human, plasma, po, 300 mg

- molecule: "Clc1ccc([C@]23CNC[C@H]2C3)cc1Cl"
  unit_text: "ng·h/mL"
  AUC(0-t): 20100
- molecule: "O=C1NCC2(c3ccc(Cl)c(Cl)c3)CC12 (centres unmarked)"
  unit_text: "ng·h/mL"
  AUC(0-t): 37300

###

Assay: Single dose 300 mg / 450 mg pharmacokinetic, safety and tolerability study in healthy male and female subjects
Settings: female, human, plasma, po, 300 mg

- compound: "O=C1NCC2(c3ccc(Cl)c(Cl)c3)CC12 (stereo not shown) [EB-10101]"
  unit_text: "ng/mL"
  concentration at 1 h: 188
